Just for reference, PubChem BioAssay (NCI) is where these values come from.

Listing of recorded TGI by entry.
Tested on: HCT-15 colon
experiment_summary: NCI tumour cell line growth inhibition, 48 h
Respond with the bare value in µM.

C=C1C(=O)O[C@H]2C/C(C=O)=C\[C@H]3O[C@H]3/C(COC(=O)C(C)C)=C/CC12 (stereo not given in full): 9.43
CC(=O)Nc1ccc(/C=C(\NC(=O)c2ccccc2)C(=O)NNS(=O)(=O)c2ccc(C)cc2)cc1: 41.1
Brc1ccc2c(c1)c(-c1nc(-c3c[nH]c4ncccc34)cs1)cn2CCCN1CCCCC1: 3.08

Now look at this one.
Inquiry: Please look up its TGI: COC(=O)/C=C\C(C#N)(C#N)N=Cc1ccsc1
Reply text: 2.9

###

System: K-562 leukemia
experiment_summary: NCI tumour cell line growth inhibition, 48 h
Listing of recorded TGI by entry.
Respond with the bare value in µM.

O=C(Nc1cccc([N+](=O)[O-])c1)c1cc2ccccc2cc1O: 11

Now look at this one.
Inquiry: Please look up its TGI: C(#Cc1ccccc1C#Cc1ccccn1)c1ccccn1
Reply text: 27.1

###

Test system: HS 578T breast
experiment_summary: NCI tumour cell line growth inhibition, 48 h
Listing of recorded TGI by entry.

Field: example entries. Status: answers known.
O=c1c(-c2ccc(O)cc2)coc2cc(O)cc(O)c12: > 100 µM
FC(F)(F)c1cc(NC2=NCCN=C(Nc3cc(C(F)(F)F)cc(C(F)(F)F)c3)SS2)cc(C(F)(F)F)c1: 27.6 µM
CC1(O)C(=O)OC2CC([C@]3(O)CCC4[C@@H]5C[C@H]6O[C@]67[C@@H](O)C=CC(=O)[C@]7(C)C5CC[C@@]43C)C1(C)C2 (some centres undefined): > 96.7 µM
CCOC(=O)CCC(C(=O)OCC)n1nnc2cc(Nc3c(C)[n+]([O-])c4ccc(Cl)cc4[n+]3[O-])ccc21 (centres undefined): > 100 µM
S=C(Nc1ccc2c(c1)Cc1ccccc1-2)Nc1ccc2c(c1)Cc1ccccc1-2: > 100 µM

Inquiry: Request - read-out TGI | tested on HS 578T breast | compound Cc1cccc2c1C(=O)[C@@](C)([C@]1(C)Nc3cccc(C)c3C1=O)N2
Reply text: > 100 µM

###

Tested on: OVCAR-8 ovarian
experiment_summary: NCI tumour cell line growth inhibition, 48 h
Listing of recorded TGI by entry.

Field: example entries. Status: answers known.
C[n+]1c(-c2ccc(/C=N/Nc3ccnc(N/N=C/c4ccc(-c5cn6ccccc6[n+]5C)cc4)n3)cc2)cn2ccccc21: > 100 µM
O=C(NCc1ccccc1)c1c(O)c2ccccc2[nH]c1=O: > 100 µM
O=C1C2=C(c3ccccc31)C(c1ccc(Cl)cc1)NC(=S)N2 (stereo unspecified): 38.4 µM
N#CC1CCc2c(c(-c3cn[nH]c3C(F)(F)F)nc3c(F)cc4[nH]ncc4c23)C1 (stereo unspecified): > 100 µM
O=C(NC/C=C/Br)NC1CCNc2ccccc21 (stereo unspecified): > 100 µM
CCC(=O)OC1=CN2C(=NC(c3ccc(N)cc3)=CC2c2cc(OC)c(OC)c(OC)c2)S1 (stereo unspecified): 22.3 µM
Cn1c(=O)c2[nH]c(CCC(=O)O)nc2n(C)c1=O: > 100 µM
COc1cc(/C=C/c2cc(/C=C/c3ccc(O)c(OC)c3)[nH]c(=O)n2)ccc1O: 12.7 µM

Inquiry: Please look up its TGI: CN(CCN(C)C(=O)CCn1ccc(=O)[nH]c1=O)C(=O)CCn1ccc(=O)[nH]c1=O
Reply text: > 100 µM

Inquiry: Please look up its TGI: CCOC(=O)c1cc(-c2ccn(C(C)=O)c2)c(-c2cc(C)co2)[nH]1
Reply text: > 100 µM

Inquiry: Please look up its TGI: C=C1C(=O)O[C@H]2C3C(=C(C)CC[C@@H]12)C(=O)[C@@H]1OC31C (stereo partly specified)
Reply text: 5.42 µM

Inquiry: Please look up its TGI: CC(C)N(Cc1ccccc1)S(=O)(=O)c1n[nH]c(C(C)(C)C)n1
Reply text: > 100 µM

Inquiry: Please look up its TGI: OC(O)(C(F)(F)F)C(F)(F)F
Reply text: > 100 µM
